Tested on: FADD−/− Jurkat cells
Experiment: Necroptosis inhibition assay, TNF-α-induced necroptosis (CellTiter-Glo 2.0)
Type: cell-based, human
Settings: compound 10 μM; TNF-α 15 ng/mL, FADD−/− Jurkat cells
Protocol: Necroptosis Inhibition Assay Necroptosis inhibition was evaluated by the following method. […] After incubation, the 96-well plate was left at room temperature for 30 minutes. […] After measuring the luminescence at 0.5 seconds per well using a plate scanner, the cytotoxicity and necroptosis inhibition rate for the compound were calculated using the measured values.
Assay Readout: Necroptosis inhibition assay (Rescue %) 10 μM

• Nc1ncc(-c2cnn(C3CCN(C(=O)CCC4CCN(c5ccc6c(c5)C(=O)N(C5CCC(=O)NC5=O)C6=O)CC4)CC3)c2)nc1C(=O)O[C@@H](C(=O)Nc1ccc(F)cc1)c1ccccc1 (stereo partly drawn) = 2.00
• Nc1ncc(-c2cnn(C3CCN(CCOC4CCN(C(=O)C5CCN(C6=CC(=O)N(C7CCC(=O)NC7=O)C6=O)CC5)CC4)CC3)c2)nc1C(=O)O[C@@H](C(=O)Nc1ccc(F)cc1)c1ccccc1 (stereo partly drawn) = 15.86
• Nc1ncc(-c2cnn(C3CCN(CCCN4CCN(CC5CCN(C(=O)COc6ccc7c(c6)C(=O)N(C6CCC(=O)NC6=O)C7=O)CC5)CC4)CC3)c2)nc1C(=O)O[C@@H](C(=O)Nc1ccc(F)cc1)c1ccccc1 (stereo partly drawn) = 24.42

* * *

biological target: MLKL (Homo sapiens, UniProt Q8NB16); assay: MLKL degradation assay in HepG2 cell line (western blot); type: cell-based; design: endogenous in cells; host or cells: HepG2 or HaCaT; conditions: compound 1 μM; cell line not given
Sequence (Q8NB16 whole entry): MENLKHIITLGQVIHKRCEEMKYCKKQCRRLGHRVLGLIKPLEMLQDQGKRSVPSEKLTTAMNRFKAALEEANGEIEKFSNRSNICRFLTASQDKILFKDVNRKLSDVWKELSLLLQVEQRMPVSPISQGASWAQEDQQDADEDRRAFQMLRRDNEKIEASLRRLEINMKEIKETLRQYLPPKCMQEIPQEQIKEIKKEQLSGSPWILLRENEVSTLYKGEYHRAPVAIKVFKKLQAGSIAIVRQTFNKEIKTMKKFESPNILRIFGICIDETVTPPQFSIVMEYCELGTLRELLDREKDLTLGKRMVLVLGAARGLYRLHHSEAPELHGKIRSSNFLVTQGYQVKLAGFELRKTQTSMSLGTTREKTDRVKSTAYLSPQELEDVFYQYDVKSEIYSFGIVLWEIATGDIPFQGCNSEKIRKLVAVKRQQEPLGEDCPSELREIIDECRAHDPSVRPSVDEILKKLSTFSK
Catalogue of Degradation assay (Degradation %) 1 μM readings, one per entry.
Assay Readout: Degradation assay (Degradation %) 1 μM

• Nc1ncc(-c2cnn(C3CCN(C(=O)CCC4CCN(c5cccc6c5C(=O)N(C5CCC(=O)NC5=O)C6=O)CC4)CC3)c2)nc1C(=O)O[C@@H](C(=O)Nc1ccc(F)cc1)c1ccccc1 (stereo partly shown) = 82.06
• Nc1ncc(-c2cnn(C3CCN(CC4CCN(C(=O)CNc5ccc6nnn(C7CCC(=O)NC7=O)c(=O)c6c5)CC4)CC3)c2)nc1C(=O)O[C@@H](C(=O)Nc1ccc(F)cc1)c1ccccc1 (stereo partly shown) = 51.96
• Nc1ncc(-c2cnn(C3CCN(CCCCCCCCCCNC(=O)C4CCN(c5cccc6c5C(=O)N(C5CCC(=O)NC5=O)C6=O)CC4)CC3)c2)nc1C(=O)O[C@@H](C(=O)Nc1ccc(F)cc1)c1ccccc1 (stereo partly shown) = 31.35
• Nc1ncc(-c2cnn(C3CCN(CCC4CCN(C(=O)C5CN(c6ccc7nnn(C8CCC(=O)NC8=O)c(=O)c7c6)C5)CC4)CC3)c2)nc1C(=O)O[C@@H](C(=O)Nc1ccc(F)cc1)c1ccccc1 (stereo partly shown) = 57.66
• Nc1ncc(-c2cnn(C3CCN(CCCCCCNC(=O)COc4ccc5c(c4)C(=O)N(C4CCC(=O)NC4=O)C5=O)CC3)c2)nc1C(=O)O[C@@H](C(=O)Nc1ccc(F)cc1)c1ccccc1 (stereo partly shown) = 62.49
• Nc1ncc(-c2cnn(C3CCN(CC4CCN(C(=O)CCc5ccc6c(c5)C(=O)N(C5CCC(=O)NC5=O)C6=O)CC4)CC3)c2)nc1C(=O)O[C@@H](C(=O)Nc1ccc(F)cc1)c1ccccc1 (stereo partly shown) = 69.07
• Nc1ncc(-c2cnn(C3CCN(CCC4CCN(C(=O)CCc5cccc6c5C(=O)N(C5CCC(=O)NC5=O)C6=O)CC4)CC3)c2)nc1C(=O)O[C@@H](C(=O)Nc1ccc(F)cc1)c1ccccc1 (stereo partly shown) = 93.13
• Nc1ncc(-c2cnn(C3CCN(CC4CCN(CC5CCN(C(=O)c6cccc(C(=O)NC7CCC(=O)NC7=O)c6)CC5)CC4)CC3)c2)nc1C(=O)O[C@@H](C(=O)Nc1ccc(F)cc1)c1ccccc1 (stereo partly shown) = 70.89
• Nc1ncc(-c2cnn(C3CCN(CCCN4CCN(C(=O)COc5ccc6c(c5)C(=O)N(C5CCC(=O)NC5=O)C6=O)CC4)CC3)c2)nc1C(=O)N[C@@H](C(=O)Nc1ccc(F)cc1)c1ccccc1 (stereo partly shown) = 13.74
• Nc1ncc(-c2cnn(C3CCN(CC4CN(C(=O)COc5ccc6c(c5)C(=O)N(C5CCC(=O)NC5=O)C6=O)CCO4)CC3)c2)nc1C(=O)OC(C(=O)Nc1ccc(F)cc1)c1ccccc1 (stereo not shown) = 76.12
• Nc1ncc(-c2cnn(C3CCN(CCOC4CCN(C(=O)COc5ccc6c(c5)C(=O)N(C5CCC(=O)NC5=O)C6=O)CC4)CC3)c2)nc1C(=O)OC(C(=O)Nc1ccc(F)cc1)c1ccccc1 (stereo not shown) = 76.56
• Nc1ncc(-c2cnn(C3CCN(CCC4CCN(c5ccc6c(c5)C(=O)N(C5CCC(=O)NC5=O)C6=O)CC4)CC3)c2)nc1C(=O)O[C@@H](C(=O)Nc1ccc(F)cc1)c1ccccc1 (stereo partly shown) = 61.41
• Nc1ncc(-c2cnn(C3CCN(CCCN4CCN(C(=O)CCc5cccc6c5CN(C5CCC(=O)NC5=O)C6=O)CC4)CC3)c2)nc1C(=O)O[C@@H](C(=O)Nc1ccc(F)cc1)c1ccccc1 (stereo partly shown) = 79.68
• COc1ccc(C(=O)N2CCC(C(=O)N3CCC(OCCN4CCC(CN5CCC(n6cc(-c7cnc(N)c(C(=O)O[C@@H](C(=O)Nc8ccc(F)cc8)c8ccccc8)n7)cn6)CC5)CC4)CC3)CC2)cc1N1CCC(=O)NC1=O = 51.41
• Nc1ncc(-c2cnn(C3CCN(C(=O)CC4CCN(C(=O)CNc5ccc6c(c5)C(=O)N(C5CCC(=O)NC5=O)C6=O)CC4)CC3)c2)nc1C(=O)O[C@@H](C(=O)Nc1ccc(F)cc1)c1ccccc1 (stereo partly shown) = 73.39
• Nc1ncc(-c2cnn([C@H]3CCN(CC4CCN(C(=O)COc5cccc6c5C(=O)N(C5CCC(=O)NC5=O)C6=O)CC4)C3)c2)nc1C(=O)OC(C(=O)Nc1ccc(F)cc1)c1ccccc1 (stereo partly shown) = 4.29
• Nc1ncc(-c2cnn(C3CCN(C(=O)COC4CCN(c5ccc6c(c5)C(=O)N(C5CCC(=O)NC5=O)C6=O)CC4)CC3)c2)nc1C(=O)O[C@@H](C(=O)Nc1ccc(F)cc1)c1ccccc1 (stereo partly shown) = 82.22
• Nc1ncc(-c2cnn(C3CCN(C(=O)C4CCN(c5cccc6c5C(=O)N(C5CCC(=O)NC5=O)C6=O)CC4)CC3)c2)nc1C(=O)OC(C(=O)Nc1ccc(F)cc1)c1ccccc1 (stereo not shown) = 38.42
• Nc1ncc(-c2cnn(C3CCN(CCOC4CCN(C(=O)C5CCN(c6ccc7c(c6)C(=O)N(C6CCC(=O)NC6=O)C7=O)CC5)CC4)CC3)c2)nc1C(=O)OC(C(=O)Nc1ccc(F)cc1)c1ccccc1 (stereo not shown) = 47.44
